# Assay protocol: binders from COS7 lysate, DM2A8 probe, primary screen, torsin A project, cell lysate, small-molecule microarray, fluorescence 635/667 (AID 1065)
# Conditions used: higher = more signal, COS7 lysate expressing mutant human TOR1A
Assign yes whenever composite z-score does not fall below 0.9; assign no whenever it does.

INSERT INTO measurements (molecule, category) VALUES
  ('Cc1ccc(S[C@]2(C(=O)NCC(F)(F)F)CC(=O)N(Cc3ccccc3)[C@@H]2c2ccc(CO)cc2)cc1', 'no'),
  ('CCOC(=O)[C@@H]1[C@@H]2C(=O)N(CC)C(=O)[C@@H]2C[C@@H]1Sc1ccccc1', 'yes'),
  ('CC(=O)NCCCC[C@@H]1NC(=O)[C@@H]2C[C@H](C(=O)O)[C@H](c3ccc(O)cc3)N2C1=O', 'no'),
  ('COc1ccc([Si](C)(C)[C@H]2[C@H](CCn3cc([C@H](O)c4ccccc4)nn3)O[C@@]3(C(=O)N(Cc4ccc(N5CCC5=O)cc4)c4ccccc43)[C@@H]2C)cc1', 'yes'),
  ('C=CC[C@@]1(C(=O)O)N=C(c2ccc(OCCCO)cc2)O[C@@H]1c1ccccc1', 'yes'),
  ('CC=CC(O)C1C=CC2C(=O)N(c3ccccc3)C(=O)C2N1Nc1ccc([N+](=O)[O-])cc1 (stereo not drawn)', 'no'),
  ('COc1cc2c(cc1OC)CN(C(=O)[C@H]1[C@@H]3C(=O)O[C@@H](c4ccccc4)[C@@H](c4ccccc4)N3[C@@H](c3ccc(OCCO)cc3)[C@]13C(=O)Nc1ccc(C#CCCO)cc13)CC2', 'no'),
  ('NC(N)=NCc1cn(CCc2c[nH]c3ccccc23)nn1', 'no');

* * *

# Assay protocol: S. cerevisiae RM11-1a growth modifiers, primary screen, strain RM11-1a, OD600, basal, 24 h (AID 1177);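 note: cultures grown under basal conditions with no added stressor; test concentration not given here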
# Conditions used: OD600, 24 h, higher = more signal, called active from +8 up or from −8 down
Readout label: z-score

INSERT INTO measurements (compound, readout_label, recorded_number) VALUES
  ('C=CC[C@]1(C(=O)N(C)C)N=C(c2ccc(OCCCO)cc2)O[C@H]1c1ccccc1N=[N+]=[N-]', 'z-score', 0.446),
  ('COc1ccc(C(O)C2C=CC3C(=O)N(C)C(=O)C3N2N2CCCCC2)cc1 (configuration not stated)', 'z-score', -0.378),
  ('O=C1O[C@@H](c2ccccc2)[C@@H](c2ccccc2)N2[C@@H](c3ccc(O)cc3)[C@]3(C(=O)Nc4ccc(C#CCCO)cc43)[C@@H](C(=O)Nc3nc4ccccc4s3)[C@H]12', 'z-score', 0.948),
  ('C=CCN1Cc2ccccc2C[C@@]2(N=C(c3ccc(OCCCO)cc3)O[C@H]2c2ccccc2)C1=O', 'z-score', 0.0893),
  ('CO[C@H]1O[C@H](CO)[C@@H](OC(=O)c2ccc(Br)cc2)[C@@H]2OC(=O)[C@@H](Cc3ccc4ccccc4c3)C/C=C/C[C@H](Cc3ccc4ccccc4c3)C(=O)O[C@@H]12', 'z-score', -1.34),
  ('CC(C)C(O)C1C=CC2C(=O)N(C)C(=O)C2N1N(c1ccccc1)c1ccccc1 (configuration not stated)', 'z-score', 0.879),
  ('COc1ccc(C#Cc2ccc3c(c2)[C@]2(C(=O)N3)[C@H](C(=O)N3CCc4cc(OC)c(OC)cc4C3)[C@H]3C(=O)O[C@H](c4ccccc4)[C@H](c4ccccc4)N3[C@@H]2c2ccc(O)cc2)cc1', 'z-score', 1.36);

* * *

# Test system: Neuregulin-1 EGF-like domain
# Assay protocol: binders of neuregulin-1 EGF-like domain, primary screen, biochemical, small-molecule microarray, 635 nm fluorescence (AID 1081);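 note: binding of the protein to compounds printed on small-molecule microarray slides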
# Conditions used: small-molecule microarray binding, higher = more signal
Assign rule met whenever composite z-score does not fall below 1; assign rule not met whenever it does.

INSERT INTO assay_data (compound, category) VALUES
  ('C=C(C(=O)CC[C@H](OC(=O)c1cccnc1)c1cccc(OCCO)c1)C(C)C', 'rule not met'),
  ('Cc1ccc(C(C)CC(O)C2C=CC3C(=O)N(c4ccccc4)C(=O)C3N2Nc2ccc(C(C)C)cc2)o1 (configuration not stated)', 'rule not met'),
  ('O=C1C2C=CC(C(O)c3cc(C(F)(F)F)cc(C(F)(F)F)c3)N(Nc3ccc([N+](=O)[O-])cc3)C2C(=O)N1c1ccccc1 (configuration not stated)', 'rule met'),
  ('C[C@]12C(=O)N(CCCCCCO)[C@@H]3C(=O)N(c4ccc(Cl)cc4)CC=CC31O[C@@H]1/C=C\CCCOC(=O)C12 (some centres not stated)', 'rule met'),
  ('CC(C)C(CO)N1C(=O)[C@]2(C)C3C(=O)OCCC/C=C\[C@H]3OC23C=CCN(c2ccc(Cl)cc2)C(=O)[C@@H]13 (some centres not stated)', 'rule met'),
  ('O=C1OC[C@@H](c2ccccc2)N2CC(/C=C/c3ccccc3)=CC12 (some centres not stated)', 'rule not met');

* * *

# Test system: Focal adhesion kinase 1 (Homo sapiens)
# Assay protocol: small-molecule microarray binders of FAK, primary screen, biochemical, 635/667 nm fluorescence, BSA, DTT (AID 1130);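 note: composite of spot emission at 667 nm and signal to noise over triplicate slides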
# Conditions used: PTK2 binding, 635 nm fluorescence, higher = more signal
Measured composite z-score accompanies every entry in the list below.
Readout label: composite z-score

INSERT INTO results (compound, test_system, recorded_number) VALUES
  ('CCOC(=O)[C@H]1C/C=C/C[C@H](C(=O)OCC)C(=O)O[C@H]2[C@@H](OC)O[C@H](CO)[C@@H](OC(=O)CCc3ccccc3)[C@@H]2OC1=O', 'Focal adhesion kinase 1 (Homo sapiens)', -0.542),
  ('CC=CC(O)C1C=CC2C(=O)N(c3ccccc3)C(=O)C2N1Nc1ccccc1 (stereo not given)', 'Focal adhesion kinase 1 (Homo sapiens)', 0.981),
  ('CCOC(=O)C1=CC[C@@H](c2cc(Cl)ccc2Cl)N(S(=O)(=O)c2ccc(C)cc2)[C@H]1c1ccc(OC)cc1', 'Focal adhesion kinase 1 (Homo sapiens)', 0.262),
  ('COc1ccc([Si](C)(C)[C@@H]2[C@@H](CCO)O[C@]3(C(=O)N(Cc4cccc(N5C(=O)c6ccccc6Oc6ccccc65)c4)c4ccccc43)[C@H]2C)cc1', 'Focal adhesion kinase 1 (Homo sapiens)', 0.121),
  ('O=C1NC(=O)C2C1C=CC(C(O)c1cc(C(F)(F)F)cc(C(F)(F)F)c1)N2Nc1ccc(Cl)cc1Cl (stereo not given)', 'Focal adhesion kinase 1 (Homo sapiens)', 0.46),
  ('COc1ccc([Si](C)(C)[C@@H]2[C@@H](CCn3cc([C@H](O)c4ccccc4)nn3)O[C@]3(C(=O)N(Cc4ccc(N5CCOC5=O)cc4)c4ccccc43)[C@H]2C)cc1', 'Focal adhesion kinase 1 (Homo sapiens)', -0.0646),
  ('O=C1O[C@@H](c2ccccc2)[C@@H](c2ccccc2)N2[C@@H](c3ccc(O)cc3)[C@]3(C(=O)Nc4ccc(C#CCCO)cc43)[C@@H](C(=O)NC[C@H](O)c3ccccc3)[C@H]12', 'Focal adhesion kinase 1 (Homo sapiens)', -0.141),
  ('CN1C2C=C(CCCO)C(C3C(=O)N(C(N)=O)C(=O)C32)C1c1cccs1 (stereo not given)', 'Focal adhesion kinase 1 (Homo sapiens)', -0.111),
  ('C[N+](C)(C)CCCC[C@@H]1NC(=O)[C@@H]2C[C@H](C(=O)O)[C@H](c3ccc(O)cc3)N2C1=O', 'Focal adhesion kinase 1 (Homo sapiens)', -0.975),
  ('NC(=O)NCC#Cc1ccc2c(c1)[C@]1(C(=O)N2)[C@H](C(=O)O)[C@H]2C(=O)O[C@H](c3ccccc3)[C@H](c3ccccc3)N2[C@@H]1c1ccccc1OCCO', 'Focal adhesion kinase 1 (Homo sapiens)', 0.129),
  ('O=C(O)[C@H](Cc1ccccc1)n1cc(-c2ccccn2)nn1', 'Focal adhesion kinase 1 (Homo sapiens)', 0.19),
  ('CC(CO)N1C(=O)[C@@H]2C3C(=O)OCCC/C=C\[C@H]3OC23C=CCN(Cn2nnc4ccccc42)C(=O)[C@@H]13 (stereo not given in full)', 'Focal adhesion kinase 1 (Homo sapiens)', -0.923),
  ('COc1ccc([Si](C)(C)[C@@H]2[C@@H](CC(=O)N3CCC[C@H]3CO)O[C@]3(C(=O)N(Cc4ccc(N5C(=O)c6cccc7cccc5c67)cc4)c4ccccc43)[C@H]2C)cc1', 'Focal adhesion kinase 1 (Homo sapiens)', 0.566),
  ('CN1C(=O)C2C=CC(C(O)Cc3ccccc3)N(N(c3ccccc3)c3ccccc3)C2C1=O (stereo not given)', 'Focal adhesion kinase 1 (Homo sapiens)', 0.293),
  ('CN1C(=O)C2C=CC(C(O)C3CCCCC3)N(N3CCCCC3)C2C1=O (stereo not given)', 'Focal adhesion kinase 1 (Homo sapiens)', 0.542);

* * *

# Test system: Chordin-like protein 2 (CHRDL2)
# Assay protocol: CHRDL2 small-molecule binders, primary screen, biochemical, small-molecule microarray, 635 nm fluorescence (AID 1126);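 note: printed compound slides probed with Chrdl2 protein at 4 µg/mL for 1 h at 4 C; score merges 667 nm emission intensity with signal to noise over three replicate slides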
# Conditions used: small-molecule microarray binding, fluorescence 635 nm; higher = more signal
Measured composite z-score accompanies every entry in the list below.
Readout label: composite z-score

INSERT INTO measurements (compound, recorded_number) VALUES
  ('O=C1c2ccccc2[C@](Cc2ccccc2I)(C(=O)NCCN2CCOCC2)[C@H](c2ccc(CO)cc2)N1Cc1ccccc1', 0.286),
  ('C=CC[C@@]1(C(=O)N2CCCCC2)N=C(c2ccc(OCCCO)cc2)O[C@@H]1c1ccccc1', 0.453),
  ('C=C(/C(=C/C[C@@H](OC(=O)c1ccncc1)c1ccccc1OCCO)c1cc(C(=O)OC)ccc1OC)C(C)C', 0.0435),
  ('COCCOC(=O)N1C(=O)[C@@]2(c3cc(C#CC4(O)CCCCCC4)ccc31)[C@H](c1ccccc1OCCO)N1[C@H](c3ccccc3)[C@H](c3ccccc3)OC(=O)[C@H]1[C@@H]2C(N)=O', 0.476),
  ('COc1ccc(C(O)C2C=CC3C(=O)N(c4ccccc4)C(=O)C3N2Nc2ccc(C#N)cc2)c2ccccc12 (stereo unspecified)', -0.32),
  ('COCCOC(=O)N1C(=O)[C@@]2(c3cc(C#CC4(O)CCCCCC4)ccc31)[C@H](C(=O)N1CCCCCCC1)[C@H]1C(=O)O[C@H](c3ccccc3)[C@H](c3ccccc3)N1[C@@H]2c1ccc(OCCO)cc1', 1.52),
  ('CC(=O)NCCCC[C@@H]1NC(=O)[C@@H]2C[C@H](C(=O)O)[C@H](c3ccc(O)cc3)N2C1=O', -0.755),
  ('NCCCCCCNC(=O)[C@H]1C[C@H]2C(=O)N[C@@H](Cc3ccccc3)C(=O)N2[C@H]1c1ccc(O)cc1', -0.14),
  ('CC=CC(O)C1C=CC2C(=O)N(C)C(=O)C2N1Nc1ccc([N+](=O)[O-])cc1[N+](=O)[O-] (stereo unspecified)', 0.001),
  ('O=C1O[C@H](c2ccccc2)[C@H](c2ccccc2)N2[C@H]1[C@@H](C(=O)O)[C@]1(C(=O)Nc3ccccc31)[C@H]2c1ccc(O)cc1', -0.632),
  ('CCCCN1CC=CC23O[C@@H]4C=CCOC(=O)[C@@H]4[C@H]2C(=O)N(CCCO)[C@@H]3C1=O (stereo partly specified)', -0.565),
  ('C=C(COC)/C(=C/C[C@@H](OC(=O)c1ccncc1)c1ccc(CO)o1)c1cnc2ccccc2c1', 1.47),
  ('CC=CC(O)C1C=CC2C(=O)N(c3ccccc3)C(=O)C2N1Nc1ccc([N+](=O)[O-])cc1 (stereo unspecified)', 0.414),
  ('Cc1ccc(S[C@]2(C(=O)NC(C)C)CC(=O)N(Cc3ccccc3C(F)(F)F)[C@@H]2c2ccc(CO)cc2I)cc1', -1.35),
  ('C=C(CCCC)/C(=C/C[C@@H](OC(C)=O)c1ccc(CO)o1)c1cc(C(=O)OC)ccc1OC', 0.182),
  ('COC(=O)C1(Cc2ccccc2)C=C2C(=C(c3ccccc3)C(=O)C2C)CN1 (stereo unspecified)', 0.0887),
  ('C=CC1c2cc(O)c(OC)cc2CCN1Cc1sc2ccccc2c1Cl (stereo unspecified)', 0.575),
  ('C=C[C@H](COC(C)=O)NS(=O)(=O)c1ccc(Br)cc1', 1.14),
  ('COCCOC(=O)N1C(=O)[C@@]2(c3cc(C#CCNC(N)=O)ccc31)[C@H](C(=O)N1CCCCCCC1)[C@H]1C(=O)O[C@H](c3ccccc3)[C@H](c3ccccc3)N1[C@@H]2c1ccc(O)cc1', 0.626),
  ('[N-]=[N+]=Nc1ccccc1C[C@@]1(C(=O)O)N=C(c2ccc(OCCCO)cc2)O[C@@H]1c1ccccc1', -0.777),
  ('COCC(=C=CC[C@H](O)c1cccc(OCCO)c1)C[C@H](O)c1ccccn1', -0.0575),
  ('O=C1C[C@@](C(=O)NCC(F)(F)F)(c2ccc([N+](=O)[O-])cc2)[C@@H](c2ccc(CO)cc2)N1C1CCCCC1', 0.489),
  ('CC(C)C(O)C1C=CC2C(=O)N(C)C(=O)C2N1Nc1ccccc1 (stereo unspecified)', 0.164),
  ('NC(=O)NCC#Cc1ccc2c(c1)[C@]1(C(=O)N2)[C@H](C(=O)Nc2nc3ccccc3s2)[C@H]2C(=O)O[C@H](c3ccccc3)[C@H](c3ccccc3)N2[C@@H]1c1ccc(O)cc1', 0.402),
  ('CN1C(=O)C2C(C1=O)C1C=C(c3ccc(CO)cc3)C2C(c2cccs2)N1Cc1cccc(OC(F)(F)F)c1 (stereo unspecified)', 0.0434),
  ('C=C(COC)/C(=C/C[C@@H](OC(=O)c1ccncc1)c1cccc(OCCO)c1)c1cnc2ccccc2c1', 1.44),
  ('O=C1OCCC=C[C@H]2OC34C=CCN(c5ccc(Cl)cc5)C(=O)[C@H]3N(CCCCCO)C(=O)[C@@H]4C12 (stereo partly specified)', -0.27),
  ('CN(C)CCCCNC(=O)[C@H]1C[C@H]2C(=O)N3CCC[C@H]3C(=O)N2[C@H]1c1ccc(O)cc1', 0.0994),
  ('NC(N)=NCc1cn(CCc2c[nH]c3ccccc23)nn1', 0.866),
  ('COC(=O)C1(Cc2ccccc2)C=C2C(=C(C(C)C)C(=O)C2C)CN1 (stereo unspecified)', -1.3),
  ('COC(=O)[C@@]1(Cc2ccc(OC)cc2)[C@H]2c3cc(C(=O)N(C)C)n(Cc4nc5ccccc5[nH]4)c3C[C@H]2CN1C(=O)c1ccccc1', -0.54);
